- experimental_system: CAR (NR1I3) Ile164Ala mutant (Homo sapiens, UniProt Q14994, I164A)
- Sequence (Q14994 whole entry I164A, the tested form may be a part): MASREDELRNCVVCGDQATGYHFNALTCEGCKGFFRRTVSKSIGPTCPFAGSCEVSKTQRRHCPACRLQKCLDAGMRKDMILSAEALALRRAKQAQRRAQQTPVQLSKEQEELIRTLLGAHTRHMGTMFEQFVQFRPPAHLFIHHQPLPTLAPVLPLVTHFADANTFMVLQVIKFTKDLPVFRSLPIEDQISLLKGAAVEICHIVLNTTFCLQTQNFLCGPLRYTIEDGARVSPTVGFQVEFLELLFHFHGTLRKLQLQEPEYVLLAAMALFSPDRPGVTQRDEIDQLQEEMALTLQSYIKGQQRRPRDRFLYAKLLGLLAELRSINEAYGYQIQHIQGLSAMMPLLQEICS
- method: Activation of human CAR Ile164Ala mutant expressed in human C3A cells at 10 uM after 24 hrs by GAL4-dependent luciferase reporter gene assay relative to control
- Type: cell-based
- measurement_parameters: C3A cells expressing human CAR Ile164Ala mutant, read-out: FC
# fold induction at 24 h, 10 µM per entry

Here's what some known entries look like.
Cc1cccc(NC(=O)N2CCN(c3cccc(C)c3)[C@H](C)C2)c1 ... 0.84
Cn1ccnc1CN1CCCN(C(=O)Nc2ccc(F)c(F)c2F)CC1 ... 1.36
O=S(=O)(NCc1csc2ccccc12)c1cccs1 ... 1.54
CC(C)c1ccc(OP(=O)(Oc2ccc(C(C)C)cc2)Oc2ccc(C(C)C)cc2)cc1 ... 1.67
O=S(=O)(NCC(c1ccccc1)c1ccccc1)c1cccs1 ... 1.42
CCc1ccc(S(=O)(=O)Nc2ccccc2C(C)(C)C)cc1 ... 1.55
CCC(=O)NCC(=O)N1CCCN1C(=O)Cc1c(C)[nH]c2ccccc12 ... 1.08
CSc1ccccc1NS(=O)(=O)c1cc(Cl)sc1Cl ... 1.66

Reported fold induction at 24 h, 10 µM ( Cc1ccc(NC(=O)NC2CCC2)cc1C ) = 1.37

Reported fold induction at 24 h, 10 µM ( CN(C)c1ccc(NS(=O)(=O)c2ccc(Br)cc2)cc1 ) = 2.33

Reported fold induction at 24 h, 10 µM ( CCCCCNC(=O)Nc1c(C)cccc1C(C)(C)C ) = 1.24

Reported fold induction at 24 h, 10 µM ( CCOc1ccccc1N1CCN(Cc2ccc(C)s2)CC1 ) = 1.49

Reported fold induction at 24 h, 10 µM ( O=S(=O)(NCCSCc1ccccc1)c1ccc(Cl)cc1 ) = 2.26

Reported fold induction at 24 h, 10 µM ( CCc1cccc(NC(=O)N(CC)[C@H](C)Cc2ccc(OC)cc2)c1 ) = 1.32

Reported fold induction at 24 h, 10 µM ( C[C@@H]1Cc2ccccc2N1S(=O)(=O)c1cccc2nsnc12 ) = 6.66

Reported fold induction at 24 h, 10 µM ( CCN(CC)c1ccc(NS(=O)(=O)c2ccc(Cl)cc2)c(C)c1 ) = 4.14

Reported fold induction at 24 h, 10 µM ( CCc1cc(Br)ccc1S(=O)(=O)Nc1ccccc1[C@@H](C)CC ) = 4.57

Reported fold induction at 24 h, 10 µM ( CCCc1ccc(S(=O)(=O)N(Cc2ccccc2)c2ccc(OC)cc2)cc1 ) = 1.56

Reported fold induction at 24 h, 10 µM ( CCCCN(c1ccccc1)S(=O)(=O)c1cccc2ccccc12 ) = 6.61

Reported fold induction at 24 h, 10 µM ( COc1ccc(OC)c(CN2C(=O)CS[C@@H]2c2ccc(F)c(Br)c2)c1 ) = 1.87

Reported fold induction at 24 h, 10 µM ( O=C(NCC1CCCCC1)N[C@H]1C[C@@H]1c1ccccc1 ) = 2.86

Reported fold induction at 24 h, 10 µM ( O=P(Oc1ccccc1)(Oc1ccccc1)Oc1ccccc1 [TRIPHENYL PHOSPHATE] ) = 6.42

Reported fold induction at 24 h, 10 µM ( CCN(c1ccccc1)S(=O)(=O)c1ccc(C(C)(C)CC)cc1 ) = 1.42

---

- experimental_system: CAR (NR1I3) Phe161Ala mutant (Homo sapiens, UniProt Q14994, F161A)
- Sequence (Q14994 whole entry F161A, the tested form may be a part): as the sequence (Q14994 whole entry I164A, the tested form may be a part) above, with F161A, A164I counted along it
- method: Activation of human CAR Phe161Ala mutant expressed in human C3A cells at 10 uM after 24 hrs by GAL4-dependent luciferase reporter gene assay relative to control
- Format: cell-based
- measurement_parameters: C3A cells expressing human CAR Phe161Ala mutant, read-out: FC
assay_endpoint: fold induction at 24 h, 10 µM
// no unit, no text: just the number

Here's what some known entries look like.
CCCCCNC(=O)Nc1c(C)cccc1C(C)(C)C ... 0.97
CN(C)c1ccc(NS(=O)(=O)c2ccc(Br)cc2)cc1 ... 1.12
CC(C)c1ccc(OP(=O)(Oc2ccc(C(C)C)cc2)Oc2ccc(C(C)C)cc2)cc1 ... 1.06
O=S(=O)(NCc1csc2ccccc12)c1cccs1 ... 1.57

Shifting focus to the molecule that follows.
Field fold induction at 24 h, 10 µM (system: CAR (NR1I3) Phe161Ala mutant (Homo sapiens, UniProt Q14994, F161A)) for entry CCN(CC)c1ccc(NS(=O)(=O)c2ccc(Cl)cc2)c(C)c1 = 1.08

---

- experimental_system: CAR (NR1I3) ligand-binding domain, wild type (Homo sapiens)
- Sequence (Q14994 whole entry, the tested form may be a part): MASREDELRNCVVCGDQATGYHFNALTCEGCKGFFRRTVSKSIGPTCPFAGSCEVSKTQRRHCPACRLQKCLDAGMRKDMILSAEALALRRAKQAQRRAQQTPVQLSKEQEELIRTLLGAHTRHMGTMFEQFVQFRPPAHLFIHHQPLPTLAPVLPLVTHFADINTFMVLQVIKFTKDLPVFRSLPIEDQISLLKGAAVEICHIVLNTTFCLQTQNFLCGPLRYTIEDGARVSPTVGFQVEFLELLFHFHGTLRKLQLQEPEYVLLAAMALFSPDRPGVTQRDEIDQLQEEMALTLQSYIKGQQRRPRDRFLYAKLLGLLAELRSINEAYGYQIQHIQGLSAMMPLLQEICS
- method: Activation of human CAR-LBD expressed in human C3A cells at 10 uM after 24 hrs by GAL4-dependent luciferase reporter gene assay relative to control
- Assay type: cell-based
- measurement_parameters: C3A cells expressing human CAR-LBD, read-out: FC
assay_endpoint: fold induction at 24 h, 10 µM

CCc1cc(Br)ccc1S(=O)(=O)NCc1ccccc1 ... 2.51

Reported fold induction at 24 h, 10 µM ( CCN(CC)c1ccc(NS(=O)(=O)c2ccc(Cl)cc2)c(C)c1 ) = 5.5

Reported fold induction at 24 h, 10 µM ( CN(C)c1ccc(NS(=O)(=O)c2ccc(Br)cc2)cc1 ) = 2.03

Reported fold induction at 24 h, 10 µM ( O=S(=O)(Nc1nc2c(s1)CCCC2)c1ccc(Br)s1 ) = 1.32

Reported fold induction at 24 h, 10 µM ( CSc1ccccc1NS(=O)(=O)c1cc(Cl)sc1Cl ) = 3.68

Reported fold induction at 24 h, 10 µM ( CCCc1ccc(S(=O)(=O)N(Cc2ccccc2)c2ccc(OC)cc2)cc1 ) = 3.8

Reported fold induction at 24 h, 10 µM ( CCCCN(c1ccccc1)S(=O)(=O)c1cccc2ccccc12 ) = 4.09

---

# fold induction at 24 h, 10 µM per entry
- experimental_system: CAR (NR1I3) His203Ala mutant (Homo sapiens, UniProt Q14994, H203A)
- Sequence (Q14994 whole entry H203A, the tested form may be a part): as the sequence (Q14994 whole entry, the tested form may be a part) above, with H203A counted along it
- method: Activation of human CAR His203Ala mutant expressed in human C3A cells at 10 uM after 24 hrs by GAL4-dependent luciferase reporter gene assay relative to control
- Type: cell-based
- measurement_parameters: C3A cells expressing human CAR His203Ala mutant, read-out: FC
// no unit, no text: just the number

Cc1ccc(NC(=O)NC2CCC2)cc1C ... 1.53

Reported fold induction at 24 h, 10 µM ( O=C(NCC1CCCCC1)N[C@H]1C[C@@H]1c1ccccc1 ) = 2.16

Reported fold induction at 24 h, 10 µM ( CC(C)c1ccc(OP(=O)(Oc2ccc(C(C)C)cc2)Oc2ccc(C(C)C)cc2)cc1 ) = 6.76

Reported fold induction at 24 h, 10 µM ( COc1ccc(OC)c(CN2C(=O)CS[C@@H]2c2ccc(F)c(Br)c2)c1 ) = 2.83

Reported fold induction at 24 h, 10 µM ( CCN(c1ccccc1)S(=O)(=O)c1ccc(C(C)(C)CC)cc1 ) = 4.22

---

- experimental_system: CAR (NR1I3) His203Ala mutant (Homo sapiens, UniProt Q14994, H203A)
- method: Activation of human CAR His203Ala mutant expressed in human C3A cells at 10 uM after 24 hrs by GAL4-dependent luciferase reporter gene assay relative to control
- Type: cell-based
- measurement_parameters: C3A cells expressing human CAR His203Ala mutant, read-out: FC
assay_endpoint: fold induction at 24 h, 10 µM
// no unit, no text: just the number

Here's what some known entries look like.
O=C1CS[C@H](c2ccncc2)N1Cc1nc2ccccc2[nH]1 ... 1.24
CCc1cc(Br)ccc1S(=O)(=O)Nc1ccccc1[C@@H](C)CC ... 10.1
O=S(=O)(Nc1nc2c(s1)CCCC2)c1ccc(Br)s1 ... 1.18
O=S(=O)(NCc1csc2ccccc12)c1cccs1 ... 1.43
CCc1ccc(S(=O)(=O)Nc2ccccc2C(C)(C)C)cc1 ... 2.62

Shifting focus to the compound that follows.
Field fold induction at 24 h, 10 µM (system: CAR (NR1I3) His203Ala mutant (Homo sapiens, UniProt Q14994, H203A)) for entry CCc1cccc(NC(=O)N(CC)[C@H](C)Cc2ccc(OC)cc2)c1 = 1.88

---

- experimental_system: CAR (NR1I3) Asn165Ala mutant (Homo sapiens, UniProt Q14994, N165A)
- Sequence (Q14994 whole entry N165A, the tested form may be a part): as the sequence (Q14994 whole entry, the tested form may be a part) above, with N165A counted along it
- method: Activation of human CAR Asn165Ala mutant expressed in human C3A cells at 10 uM after 24 hrs by GAL4-dependent luciferase reporter gene assay relative to control
- Assay type: cell-based
- measurement_parameters: C3A cells expressing human CAR Asn165Ala mutant, read-out: FC
assay_endpoint: fold induction at 24 h, 10 µM
// no unit, no text: just the number

Here's what some known entries look like.
Cc1cccc(NC(=O)N2CCN(c3cccc(C)c3)[C@H](C)C2)c1 ... 1.08
O=P(Oc1ccccc1)(Oc1ccccc1)Oc1ccccc1 [TRIPHENYL PHOSPHATE] ... 3.01
CCCCN(c1ccccc1)S(=O)(=O)c1cccc2ccccc12 ... 2.07
CCCCCNC(=O)Nc1c(C)cccc1C(C)(C)C ... 1.76
Cc1ccc(NC(=O)NC2CCC2)cc1C ... 1.33
CN(C)c1ccc(NS(=O)(=O)c2ccc(Br)cc2)cc1 ... 0.99
CCC(=O)NCC(=O)N1CCCN1C(=O)Cc1c(C)[nH]c2ccccc12 ... 1.23
CCc1cc(Br)ccc1S(=O)(=O)NCc1ccccc1 ... 1.19
CCCc1ccc(S(=O)(=O)N(Cc2ccccc2)c2ccc(OC)cc2)cc1 ... 1.82
CSCCN1C(=O)CS[C@@H]1c1ccc(Br)s1 ... 1.87

Reported fold induction at 24 h, 10 µM ( O=S(=O)(NCC(c1ccccc1)c1ccccc1)c1cccs1 ) = 0.53

Reported fold induction at 24 h, 10 µM ( O=S(=O)(NCc1csc2ccccc12)c1cccs1 ) = 1.7

Reported fold induction at 24 h, 10 µM ( CCN(c1ccccc1)S(=O)(=O)c1ccc(C(C)(C)CC)cc1 ) = 1.22

Reported fold induction at 24 h, 10 µM ( Cn1ccnc1CN1CCCN(C(=O)Nc2ccc(F)c(F)c2F)CC1 ) = 1.98

Reported fold induction at 24 h, 10 µM ( CSc1ccccc1NS(=O)(=O)c1cc(Cl)sc1Cl ) = 5.18

Reported fold induction at 24 h, 10 µM ( CC(C)c1ccc(OP(=O)(Oc2ccc(C(C)C)cc2)Oc2ccc(C(C)C)cc2)cc1 ) = 2.66
